# Tested on: HepG2-A16-CD81 hepatocytes
# Parameters: Uninfected hepatocyte viability, CellTiter-Glo luminescence
# EXPERIMENTAL_CONTEXT: cytotoxicity primary screen, inhibitor
Overview of reported HepG2 toxicity primary screen (10uM): inhibition % (n=1) across a group of molecules:
# unit: % | format: bare number

For the molecule COc1cccc(Cn2nc(C)c3c(NC(=O)C(C)OC)[nH]nc32)c1 (stereo not drawn) [DDD01063202] , what HepG2 toxicity primary screen (10uM): inhibition % (n=1) is on record?
-2.03

Entry to check: Cc1nnsc1C(=O)N1CCCCC1c1cc2[nH]c(C)c(C)c(=O)n2n1 (stereo not drawn) [DDD01059036]
-5.93

Entry to check: CCc1c(C)[nH]c2cc(C3CCN(CCc4ccccc4)C3)nn2c1=O (stereo not drawn) [DDD01060567]
-20.1

// provenance: paper PMC7155171
